target: Nav 1.7 (Homo sapiens (Human), UniProt Q15858); assay: in-vitro Nav 1.7 PX (IC50); type: cell-based
Sequence (Q15858 whole entry): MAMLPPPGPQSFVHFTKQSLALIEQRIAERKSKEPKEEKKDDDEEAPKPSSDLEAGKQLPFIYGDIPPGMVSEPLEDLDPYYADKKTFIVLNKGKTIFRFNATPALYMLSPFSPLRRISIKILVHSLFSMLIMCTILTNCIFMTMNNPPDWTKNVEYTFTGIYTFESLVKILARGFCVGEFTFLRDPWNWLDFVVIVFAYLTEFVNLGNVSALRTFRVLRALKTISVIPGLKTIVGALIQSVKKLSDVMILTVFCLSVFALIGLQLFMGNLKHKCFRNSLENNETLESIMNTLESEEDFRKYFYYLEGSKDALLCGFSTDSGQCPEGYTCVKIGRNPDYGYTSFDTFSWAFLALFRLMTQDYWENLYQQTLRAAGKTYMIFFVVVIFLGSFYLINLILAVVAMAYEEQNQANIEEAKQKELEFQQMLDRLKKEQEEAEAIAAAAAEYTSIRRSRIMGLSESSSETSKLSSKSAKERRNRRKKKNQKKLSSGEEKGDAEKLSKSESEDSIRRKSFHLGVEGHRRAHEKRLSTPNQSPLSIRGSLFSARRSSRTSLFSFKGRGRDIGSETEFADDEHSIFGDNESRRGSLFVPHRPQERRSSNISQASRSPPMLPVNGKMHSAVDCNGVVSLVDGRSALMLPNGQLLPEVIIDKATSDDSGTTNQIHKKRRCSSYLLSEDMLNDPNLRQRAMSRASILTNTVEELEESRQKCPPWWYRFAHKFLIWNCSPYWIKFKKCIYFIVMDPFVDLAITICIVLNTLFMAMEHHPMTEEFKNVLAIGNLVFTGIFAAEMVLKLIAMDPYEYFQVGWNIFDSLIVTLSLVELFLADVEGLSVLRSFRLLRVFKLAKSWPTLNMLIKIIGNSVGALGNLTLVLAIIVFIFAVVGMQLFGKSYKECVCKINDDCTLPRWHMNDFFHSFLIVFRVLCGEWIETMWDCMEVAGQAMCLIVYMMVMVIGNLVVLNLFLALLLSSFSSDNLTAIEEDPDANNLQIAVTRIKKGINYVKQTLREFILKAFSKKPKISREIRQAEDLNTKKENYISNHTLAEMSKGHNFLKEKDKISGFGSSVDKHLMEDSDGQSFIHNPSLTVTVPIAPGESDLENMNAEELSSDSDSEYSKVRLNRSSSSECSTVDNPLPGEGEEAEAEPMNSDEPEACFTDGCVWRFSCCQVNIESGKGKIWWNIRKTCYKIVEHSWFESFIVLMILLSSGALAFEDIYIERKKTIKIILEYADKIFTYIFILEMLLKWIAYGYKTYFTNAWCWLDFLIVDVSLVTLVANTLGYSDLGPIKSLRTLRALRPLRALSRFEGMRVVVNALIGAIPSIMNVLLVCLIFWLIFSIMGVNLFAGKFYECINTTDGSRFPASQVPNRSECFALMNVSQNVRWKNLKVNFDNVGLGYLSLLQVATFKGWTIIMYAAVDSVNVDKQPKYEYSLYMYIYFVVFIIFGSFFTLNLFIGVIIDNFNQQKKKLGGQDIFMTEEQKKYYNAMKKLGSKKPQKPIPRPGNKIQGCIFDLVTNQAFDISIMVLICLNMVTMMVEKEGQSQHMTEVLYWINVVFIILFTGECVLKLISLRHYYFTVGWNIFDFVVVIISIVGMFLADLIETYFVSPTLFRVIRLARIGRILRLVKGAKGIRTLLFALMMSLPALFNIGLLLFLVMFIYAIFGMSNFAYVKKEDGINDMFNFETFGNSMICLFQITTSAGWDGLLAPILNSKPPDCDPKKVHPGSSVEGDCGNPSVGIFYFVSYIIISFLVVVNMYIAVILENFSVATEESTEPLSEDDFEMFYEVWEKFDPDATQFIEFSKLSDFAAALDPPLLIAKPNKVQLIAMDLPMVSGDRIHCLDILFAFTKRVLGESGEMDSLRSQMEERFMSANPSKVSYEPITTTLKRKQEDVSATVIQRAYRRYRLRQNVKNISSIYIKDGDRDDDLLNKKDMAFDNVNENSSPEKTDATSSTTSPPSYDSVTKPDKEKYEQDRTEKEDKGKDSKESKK
Returns: string. Value is rule met if measured IC50 is below 90 nM, and rule not met if it is greater than or equal to it.

Input line: Quick check: IC50 of COc1cc(-c2cccc(C(F)(F)F)c2)ccc1-n1c(=O)ccc2cc(S(=O)(=O)Nc3cccc(F)n3)ccc21 (atropisomer, axis not shown; (P)) [Example 1242] under 90 nM?
Output line: rule met

Input line: Given COc1nc(N(C)C2CCCC2)c(Cl)cc1-n1c(=O)ccc2cc(S(=O)(=O)Nc3ccon3)ccc21 [Example 1231] , is recorded IC50 strictly lower than 90 nM?
Output line: rule not met

Input line: # TODO verify IC50 < 90 nM strictly for this compound: COc1cc(-c2cccc(C(F)(F)F)c2)ccc1-n1c(=O)cnc2cc(S(=O)(=O)Nc3ncccn3)ccc21 [Example 1200]
Output line: rule met

Input line: Is IC50 of COc1cc(-c2ccc(F)c(F)c2)c(F)cc1-n1c(=O)cnc2cc(S(=O)(=O)Nc3ccon3)ccc21 [Example 1179] strictly below 90 nM?
Output line: rule met
